Measured values drawn from ChEMBL document CHEMBL4261642 for this set.

Target: Retinal dehydrogenase 2 (Homo sapiens, UniProt O94788)
Sequence (O94788 whole entry): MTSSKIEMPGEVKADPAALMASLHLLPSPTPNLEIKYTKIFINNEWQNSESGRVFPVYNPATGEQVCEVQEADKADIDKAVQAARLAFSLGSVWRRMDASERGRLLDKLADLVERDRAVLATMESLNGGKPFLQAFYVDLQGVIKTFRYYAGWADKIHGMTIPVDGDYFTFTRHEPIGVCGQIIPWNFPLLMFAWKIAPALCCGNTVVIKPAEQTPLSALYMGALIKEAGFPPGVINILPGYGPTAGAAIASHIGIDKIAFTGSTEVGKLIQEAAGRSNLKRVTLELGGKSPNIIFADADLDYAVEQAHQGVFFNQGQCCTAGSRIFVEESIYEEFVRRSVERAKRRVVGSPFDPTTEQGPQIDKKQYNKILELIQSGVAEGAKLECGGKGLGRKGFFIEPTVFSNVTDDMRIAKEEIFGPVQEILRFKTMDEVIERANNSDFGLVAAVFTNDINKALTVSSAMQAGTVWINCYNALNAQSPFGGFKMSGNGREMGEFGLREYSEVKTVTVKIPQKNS
Assay: Inhibition of N-terminal His6-tagged recombinant human RALDH2 using RAL as substrate preincubated for 20 mins followed by substrate addition and measured after 30 mins in presence of NADH by fluorescence assay
recordedEndpoint: IC50
Write the numeric value and follow it with the unit.

Record CC1=C(/C=C/C(C)=C/C=C/C(C)=C/C(=O)C(Cl)Cl)C(C)(C)CCC1 : what is its IC50 with Retinal dehydrogenase 2 (Homo sapiens, UniProt O94788)?
191 nM
